Here, each record is paired with measured emission maximum data.
run-description: solvent given as SMILES
assay-conditions: in ClC(Cl)Cl

Example entries and their recorded answers appear below.
[
  {
    "compound": "CN(C)c1ccc(/C=C/c2nc3ccc(N(C)C)cc3oc2=O)cc1",
    "reported-value": "627 nm"
  },
  {
    "compound": "c1csc(-c2ccc(-c3cccs3)c3nsnc23)c1",
    "reported-value": "565 nm"
  },
  {
    "compound": "C(#Cc1ccccc1)C(C#Cc1ccccc1)=Cc1cccc(C=C(C#Cc2ccccc2)C#Cc2ccccc2)c1",
    "reported-value": "413 nm"
  },
  {
    "compound": "CC[Si](C)(C)c1cc2ccc3cccc4ccc(c1C(=O)NC(C)(C)C)c2c34",
    "reported-value": "383 nm"
  }
]

In plain terms, `CN1C(=CC2=C([S-])C(=CC3=[N+](C)c4ccccc4C3(C)C)C2=O)C(C)(C)c2ccccc21` has a documented emission maximum of 663 nm

// recorded emission maximum for `O=S(=O)(c1cccc(-n2c3ccccc3c3ccccc32)c1)c1cccc(-n2c3ccccc3c3ccccc32)c1` : 422 nm

The recorded emission maximum for `c1cc2ccc1CCCc1ccc(c3nsnc13)CCC2` is 496 nm

Memo: `CN(C)c1ccc2nc(/C=C/c3ccccc3)c(=O)oc2c1` , reported emission maximum: 542 nm

Cc1cc(C)c(C2=C3C=CC=[N+]3[B-]3(c4cccc5ccccc45)Oc4cc(O)cc5c6ccc(C)cc6c6cc2n3c6c45)c(C)c1 (centres undefined) yielded emission maximum of 669 nm

###

The following compounds are listed with their measured emission maximum values.
run-description: solvent given as SMILES
assay-conditions: in O=P(c1ccccc1)(c1ccccc1)c1ccccc1Oc1ccccc1P(=O)(c1ccccc1)c1ccccc1
Report as a plain number; the unit nm is understood.

// solved cases for emission maximum follow
[
  {
    "cpd-smiles": "Cc1cc(N2c3ccccc3C(C)(C)c3ccccc32)ccc1-c1ncnc(-c2ccc(N3c4ccccc4C(C)(C)c4ccccc43)cc2C)c1C",
    "unit-abbrev": "nm",
    "reported-value": 454
  },
  {
    "cpd-smiles": "CC(C)(C)c1ccc2c(c1)c1cc(C(C)(C)C)ccc1n2-c1cc[n+]2c(c1)-c1ccccc1O[B-]2(F)F",
    "unit-abbrev": "nm",
    "reported-value": 488
  },
  {
    "cpd-smiles": "CC(C)(C)c1ccc(N(c2ccc(C(C)(C)C)cc2)c2ccc(S(=O)(=O)c3ccc(N(c4ccc(C(C)(C)C)cc4)c4ccc(C(C)(C)C)cc4)cc3)cc2)cc1",
    "unit-abbrev": "nm",
    "reported-value": 430
  },
  {
    "cpd-smiles": "N#Cc1cc(C#N)c(-n2c3ccccc3c3cc(-c4cccc5c4c4ccccc4n5-c4cc(-n5c6ccccc6c6ccccc65)c(C#N)cc4C#N)ccc32)cc1-n1c2ccccc2c2ccccc21",
    "unit-abbrev": "nm",
    "reported-value": 448
  },
  {
    "cpd-smiles": "c1ccc(-c2cc(-c3ccc(N4c5ccccc5C(c5ccccc5)(c5ccccc5)c5ccccc54)cc3)nc(-c3ccccc3)n2)cc1",
    "unit-abbrev": "nm",
    "reported-value": 464
  }
]

The compound listed as `CC1(C)c2ccccc2N(c2ccc(-c3nnc(-c4ccc(N5c6ccccc6C(C)(C)c6ccccc65)cc4)o3)cc2)c2ccccc21` has a reported emission maximum of 472

Query `CC1(C)c2ccccc2N(c2cc[n+]3c(c2)-c2ccccc2O[B-]3(F)F)c2ccccc21` yields emission maximum of 542

According to the records, this compound `c1ccc(-c2nc(-c3ccc(N4c5ccccc5C(c5ccccc5)(c5ccccc5)c5ccccc54)cc3)cc(-c3ccccn3)n2)cc1` displays emission maximum of 468

Reported emission maximum ( `CC1(C)c2ccccc2N(c2ccc3c(c2)c2ccccc2n2c4ccccc4nc32)c2ccccc21` ) = 447.06

emission maximum for `c1ccc(-c2nc(-c3ccccc3)nc(-c3ccc(-n4c5ccccc5c5c6c(ccc54)-c4ccccc4C6(c4ccccc4)c4ccccc4)cc3)n2)cc1` is 475

###

run-description: solvent given as SMILES
assay-conditions: in CC#N
Recorded emission maximum values for a group of molecules are listed next.
Report the value in nm with no unit label.

Just so you know, measured emission maximum for `CN(C)c1ccc(/C=C/C(=O)c2ccc(Cl)cc2)cc1` came out at 540

Lab book: emission maximum of `CCN1\C(=C/C=C/C=C/C2=[N+](CC)c3ccc4cc(Br)ccc4c3C2(C)C)C(C)(C)c2c1ccc1cc(Br)ccc21` noted as 699

Reported emission maximum ( `CN(C)CCCN1c2ccccc2Sc2ccc(C(F)(F)F)cc21` ) = 470

# emission maximum (molecule: `c1ccc(-n2c(-c3ccc(-n4c5ccccc5c5ccccc54)cc3)nc3nccnc32)cc1` ) is 490

emission maximum reading for `COc1cc(/C=C/c2cc(OC)c(-c3nc(-c4ccccc4)c(-c4ccccc4)[nH]3)cc2OC)c(OC)cc1/C=C/c1cc(OC)c(-c2nc(-c3ccccc3)c(-c3ccccc3)[nH]2)cc1OC` : 515

Field emission maximum (entry `CC(C)(C)c1ccc(N(c2ccc(C(C)(C)C)cc2)c2ccc3c(N(c4ccc(C(C)(C)C)cc4)c4ccc(C(C)(C)C)cc4)cc4c5cc(N(c6ccc(C(C)(C)C)cc6)c6ccc(C(C)(C)C)cc6)ccc5c(N(c5ccc(C(C)(C)C)cc5)c5ccc(C(C)(C)C)cc5)cc4c3c2)cc1` ) reads 470

Just so you know, measured emission maximum for `CC1(C)CC(=O)c2ccccc2N1` came out at 439

###

run-description: solvent given as SMILES
assay-conditions: in Cc1ccccc1
Values of emission maximum greater than or equal to 500 nm map to 1; values below map to 0.

Examples with answers:
[
  {
    "cpd-smiles": "FC(F)(F)c1cc2n(n1)[B-]1(c3ccccc3-c3ccccc31)[n+]1ccc3ccccc3c1-2",
    "class": 1
  },
  {
    "cpd-smiles": "c1ccc2c(-n3cnc4ccccc43)cccc2c1",
    "class": 0
  },
  {
    "cpd-smiles": "O=S1(=O)c2ccc(-c3ccc(N(c4ccccc4)c4ccccc4)cc3)cc2C2(c3ccccc3-c3ccccc32)c2cc(-c3ccc(N(c4ccccc4)c4ccccc4)cc3)ccc21",
    "class": 0
  }
]

Turning now to a further record.
Task item: Exam item: decide whether the reported emission maximum for `CC1(C)c2ccccc2N(c2ccc3nc4c5ccc(N6c7ccccc7C(C)(C)c7ccccc76)cc5c5cc(N6c7ccccc7C(C)(C)c7ccccc76)ccc5c4nc3c2)c2ccccc21` is at least 500 nm.
Reply: 1

###

Entries and their measured emission maximum follow.
run-description: solvent given as SMILES
assay-conditions: in O

Illustrative cases are given below, each with its answer.
[
  {
    "cpd-smiles": "CC[N+]1(CC)CN2C(C)=CC(C)=C(C(=O)[O-])C2=N1",
    "reported-value": "449 nm"
  },
  {
    "cpd-smiles": "CCCC(=O)c1c2c(c(C(=O)CCC)c3c1OC(CC(=O)OC)(C(=O)O)O3)OCO2",
    "reported-value": "637 nm"
  },
  {
    "cpd-smiles": "O=C1Nc2ccccc2/C1=C/C(=O)c1ccc(Cl)cc1",
    "reported-value": "410 nm"
  },
  {
    "cpd-smiles": "O=Cc1ccc(-c2ccc(O)c(-c3nc4ccccc4s3)c2)o1",
    "reported-value": "564 nm"
  },
  {
    "cpd-smiles": "O=C(O)CC[N+]1=c2cc3c(cc2CCC1)=Cc1c(c2cc4c5c(c2oc1=O)CCCN5CCC4)O3",
    "reported-value": "684 nm"
  }
]

// field: emission maximum; key: `CN(C)c1ccc2c(-c3ccc(C(=O)[O-])cc3C(=O)[O-])c3ccc(=[N+](C)C)cc-3oc2c1` ; value = 578 nm

For `c1ccc2c[n+]3ccccc3cc2c1` the compound record lists emission maximum as 404 nm

Entry under test: `COCCOc1ccc(OCCOC)c(C=O)c1` . Its emission maximum was 483 nm

Value of emission maximum reported for the compound `COC(=O)c1nc2cnc(N)nc2n1Cc1ccccc1` is 420 nm

Entry `Cc1cc(/N=C/c2cc(S(=O)(=O)[O][Na])ccc2O)c(/N=C/c2cc(S(=O)(=O)[O][Na])ccc2O)cc1C` , emission maximum reported as 426 nm

###

run-description: solvent given as SMILES
assay-conditions: in CCCCO
Note to self: use rule met only for emission maximum readings below 400 nm; a reading exactly at 400 nm still gets rule not met.

As a guide, the following entries are already answered.
[
  {
    "molecule": "COCCOc1ccc(OCCOC)c(C=O)c1",
    "class": "rule not met"
  },
  {
    "molecule": "Oc1ccccc1/C=N/c1ccc(Cn2cncn2)cc1",
    "class": "rule met"
  },
  {
    "molecule": "COCCOCCOCCOc1ccc(OCCOCCOCCOC)c(C=O)c1",
    "class": "rule not met"
  }
]

Task item: Criterion: emission maximum strictly below 400 nm. Is it met by `COc1c2ccccc2c(-c2ccccc2)c2ccccc12` ?
Reply: rule not met

Task item: hey, is emission maximum for `CCC1=C(C)C2=C(C)c3c(C)c(CC)c(C)n3[B-](F)(F)[N+]2=C1C` lower than 400 nm or not?
Reply: rule not met

Task item: emission maximum under 400 nm? Item: `Cc1cc(=O)c2ccc(N)cc2o1`
Reply: rule not met

Task item: Does this molecule meet the criterion emission maximum < 400 nm? `Oc1cccc(/N=C/c2ccccc2Oc2ccccc2)c1`
Reply: rule not met

Task item: Is emission maximum strictly under 400 nm for the entry `CCN(CC)c1ccc2c(C)cc(=O)oc2c1` ?
Reply: rule not met

Hello, the source for this data is the Deep4Chem optical property database, in case you need it.
